# credit: paper PMC5913254

test system: immortalized human bronchial epithelial cells (16HBE); test: alamarBlue cytotoxicity assay against 16HBE cells (in vitro LD50); format: cell-based; conditions: 24 h
Please respond with reported LD50 for every item in the list.
Give bare numbers, in µM.

Solved entries:
CC(=O)[O][Ag][c]1n(C)c2c(c(=O)n(C)c(=O)n2C)[n+]1C [SCC1] : 297
CCCCCCn1c(Cl)c(Cl)[n+](Cc2ccc3ccccc3c2)[c]1[Ag][O]C(C)=O [SCC28] : 58.1
CC(=O)[O][Ag][c]1n(Cc2ccc3ccccc3c2)c(Cl)c(Cl)[n+]1Cc1ccc2ccccc2c1 [SCC23] : 14.7

I have this molecule here, CC(=O)[O][Ag][c]1n(CCCO)c(Cl)c(Cl)[n+]1C [SCC22] , and I need its recorded LD50. 224
